# Method description: qHTS assay for environmental chemicals that activate the Aryl hydrocarbon Receptor (AhR) signaling pathway (AID 651777); further: potency means the concentration at half of the fitted maximal effect; nearly all actives have a fitted effect of over 15% in size
# Cond: 1A2-DRE human hepatoma cells, luciferase, 24 h
Results filed as inconclusive are left out. Active and inactive are the calls of the source. The call rests on the fitted dose curve; in most records, active means well fitted activation curve with a large enough effect; inconclusive means small, poorly fitted or top-dose-only effect; inactive means flat fitted curve, though single readings scatter.

Structure smiles string: CON(C)C(=O)Nc1ccc(Cl)c(Cl)c1
Potency: 35.5 µM (active)

Structure smiles string: c1ccc2c(c1)ccc1c3ccccc3ccc21
Potency: 11.2 µM (active)

Structure smiles string: O=C(NC(=O)c1c(F)cccc1F)Nc1ccc(Cl)cc1
Potency: 2.51 µM (active)

Structure smiles string: Cc1c2ccccc2c(C)c2c1ccc1ccccc12
Potency: 25.1 µM (active)

Structure smiles string: c1ccc2cc3c(ccc4ccccc43)cc2c1
Potency: 22.4 µM (active)

Structure smiles string: O=C1C=CC(=O)c2ccccc21
Potency: 15.8 µM (active)

Structure smiles string: CCS(=O)(=O)c1cccnc1S(=O)(=O)NC(=O)Nc1nc(OC)cc(OC)n1
Potency: 31.6 µM (active)

Structure smiles string: Nc1ccccc1O
Potency: 12.6 µM (active)

Structure smiles string: Oc1ccc2ccccc2c1N=Nc1ccccc1
Potency: 14.1 µM (active)

* * *

# Method description: qHTS assay for small molecule agonists of the antioxidant response element (ARE) signaling pathway measured by Nrf2-dependant transcriptional activity (AID 720636);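 on activation: HepG2 cells with an ARE-driven luciferase reporter; % of control where 0% means no effect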
# Cond: ARE-luc HepG2, Nrf2 luciferase reporter, 16 h; series mostly up to 92.4 µM
Results filed as inconclusive are left out. Active and inactive are the calls of the source. The call rests on the fitted dose curve; in most records, active means well fitted activation curve with a large enough effect in the repeat runs; inconclusive means weak or mixed curves; inactive means flat fitted curve, though single readings scatter.
Classes used: active, inactive

Compound: CCOP(=S)(OCC)Oc1nc(Cl)n(C(C)C)n1
Label: inactive
//
Compound: CCOP(=O)(NC(C)C)Oc1ccc(S(C)(=O)=O)c(C)c1 (configuration not stated)
Label: inactive
//
Compound: CSc1nnc(C(C)(C)C)c(=O)n1N
Label: inactive
//
Compound: COC(=O)N(C(=O)N1COC2(C(=O)OC)Cc3cc(Cl)ccc3C2=N1)c1ccc(OC(F)(F)F)cc1 (configuration not stated)
Label: inactive
//
Compound: ClC1=C(Cl)C2(Cl)C3C4OC4C(Cl)C3C1(Cl)C2(Cl)Cl (configuration not stated)
Label: inactive
//
Compound: CC(Oc1cc(Cl)c(Cl)cc1Cl)C(=O)O (configuration not stated)
Label: inactive
//
Compound: c1ccc2cc3c(ccc4ccccc43)cc2c1
Label: active

* * *

# Assayed system: Retinoic acid receptor RXR-alpha (Homo sapiens) (UniProt P19793)
# Sequence (P19793 whole entry, looked up): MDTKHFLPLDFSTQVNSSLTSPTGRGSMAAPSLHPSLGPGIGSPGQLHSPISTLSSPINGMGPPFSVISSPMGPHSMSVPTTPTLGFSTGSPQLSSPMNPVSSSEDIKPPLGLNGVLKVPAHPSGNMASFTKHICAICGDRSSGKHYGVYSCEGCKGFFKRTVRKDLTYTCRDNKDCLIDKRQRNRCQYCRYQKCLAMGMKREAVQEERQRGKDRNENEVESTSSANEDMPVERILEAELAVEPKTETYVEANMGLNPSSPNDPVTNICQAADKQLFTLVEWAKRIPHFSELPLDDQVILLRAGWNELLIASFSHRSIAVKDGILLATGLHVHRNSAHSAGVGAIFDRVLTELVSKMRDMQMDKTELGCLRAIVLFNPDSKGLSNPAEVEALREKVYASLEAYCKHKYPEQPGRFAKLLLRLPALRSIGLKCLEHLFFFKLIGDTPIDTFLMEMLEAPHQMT
# Method description: qHTS assay for small molecule antagonists of retinoid X receptor alpha signaling (AID 588546);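 further: cells stimulated with 9-cis-retinoic acid as agonist; on the % scale 0 is the no-effect control and ±100 the full control effect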
# Cond: HEK293T RXRa-UAS-bla, beta-lactamase ratio, antagonist mode
Results filed as inconclusive are left out.

Compound: COc1cc(OC)nc(NC(=O)NS(=O)(=O)c2ncccc2C(F)(F)F)n1
Assayed system: Retinoic acid receptor RXR-alpha (Homo sapiens) (UniProt P19793)
max response (%): 2.48
//
Compound: OC(c1ccc(Cl)cc1)(c1ccc(Cl)cc1)C(Cl)(Cl)Cl
Assayed system: Retinoic acid receptor RXR-alpha (Homo sapiens) (UniProt P19793)
max response (%): 3.94
//
Compound: CCSCc1ccccc1OC(=O)NC
Assayed system: Retinoic acid receptor RXR-alpha (Homo sapiens) (UniProt P19793)
max response (%): -13
//
Compound: COP(=O)(NC(C)=O)SC (stereo not drawn)
Assayed system: Retinoic acid receptor RXR-alpha (Homo sapiens) (UniProt P19793)
max response (%): -12.8
//
Compound: CCC(C)c1cc([N+](=O)[O-])cc([N+](=O)[O-])c1O (stereo not drawn)
Assayed system: Retinoic acid receptor RXR-alpha (Homo sapiens) (UniProt P19793)
max response (%): 15.9
//
Compound: CCOP(=S)(OCC)Oc1ncn(-c2ccccc2)n1
Assayed system: Retinoic acid receptor RXR-alpha (Homo sapiens) (UniProt P19793)
max response (%): -7.83
//
Compound: CC(C1CC1)C(O)(Cn1cncn1)c1ccc(Cl)cc1 (stereo not drawn)
Assayed system: Retinoic acid receptor RXR-alpha (Homo sapiens) (UniProt P19793)
max response (%): -4.42
//
Compound: CS(=O)(=O)NC(=O)c1cc(Oc2ccc(C(F)(F)F)cc2Cl)ccc1[N+](=O)[O-]
Assayed system: Retinoic acid receptor RXR-alpha (Homo sapiens) (UniProt P19793)
max response (%): -2.65
//
Compound: CNC(=O)/C=C(\C)OP(=O)(OC)OC
Assayed system: Retinoic acid receptor RXR-alpha (Homo sapiens) (UniProt P19793)
max response (%): -15.9
//
Compound: O=C=Nc1ccc(Cl)cc1
Assayed system: Retinoic acid receptor RXR-alpha (Homo sapiens) (UniProt P19793)
max response (%): -10.5
//
Compound: Cc1nc(N(C)C)nc(OC(=O)N(C)C)c1C
Assayed system: Retinoic acid receptor RXR-alpha (Homo sapiens) (UniProt P19793)
max response (%): 5.66
//
Compound: C=CCC1=C(C)[C@@H](OC(=O)[C@@H]2[C@@H](C=C(C)C)C2(C)C)CC1=O
Assayed system: Retinoic acid receptor RXR-alpha (Homo sapiens) (UniProt P19793)
max response (%): -11.9
//
Compound: CC1=NNC(=O)N(/N=C/c2cccnc2)C1
Assayed system: Retinoic acid receptor RXR-alpha (Homo sapiens) (UniProt P19793)
max response (%): -13.2
//
Compound: CCCOc1nn(C(=O)NS(=O)(=O)c2ccccc2C(=O)OC)c(=O)n1C
Assayed system: Retinoic acid receptor RXR-alpha (Homo sapiens) (UniProt P19793)
max response (%): -2.92
//
Compound: N#CN=C1SCCN1Cc1ccc(Cl)nc1
Assayed system: Retinoic acid receptor RXR-alpha (Homo sapiens) (UniProt P19793)
max response (%): -3.64
//
Compound: O=C(NC(=O)c1c(F)cccc1F)Nc1ccc(OC(F)(F)C(F)OC(F)(F)F)c(Cl)c1 (stereo not drawn)
Assayed system: Retinoic acid receptor RXR-alpha (Homo sapiens) (UniProt P19793)
max response (%): -13
//
Compound: CC/C(=N\OC/C=C/Cl)C1=C(O)CC(C2CCOCC2)CC1=O (stereo not drawn)
Assayed system: Retinoic acid receptor RXR-alpha (Homo sapiens) (UniProt P19793)
max response (%): 3.36
//
Compound: [Ga]#[As]
Assayed system: Retinoic acid receptor RXR-alpha (Homo sapiens) (UniProt P19793)
max response (%): 6.85
//
Compound: CCOP(=O)(OCC)Oc1cc(C)nc(C(C)C)n1
Assayed system: Retinoic acid receptor RXR-alpha (Homo sapiens) (UniProt P19793)
max response (%): 18.7
//
Compound: COP(=O)(OC)O/C(C)=C/C(=O)N(C)C
Assayed system: Retinoic acid receptor RXR-alpha (Homo sapiens) (UniProt P19793)
max response (%): -0.431
//
Compound: CCOP(=S)(OCC)SCC(=O)NC(C)C
Assayed system: Retinoic acid receptor RXR-alpha (Homo sapiens) (UniProt P19793)
max response (%): -1.4
//
Compound: CCOc1cc(Oc2ccc(C(F)(F)F)cc2Cl)ccc1[N+](=O)[O-]
Assayed system: Retinoic acid receptor RXR-alpha (Homo sapiens) (UniProt P19793)
max response (%): -3.17
//
Compound: CC(C)(C)OOC(C)(C)CCC(C)(C)OOC(C)(C)C
Assayed system: Retinoic acid receptor RXR-alpha (Homo sapiens) (UniProt P19793)
max response (%): -1.22
//
Compound: CC1(C(=O)Nc2ccc(O)c(Cl)c2Cl)CCCCC1
Assayed system: Retinoic acid receptor RXR-alpha (Homo sapiens) (UniProt P19793)
max response (%): -4.55
//
Compound: Cc1cc(Cl)ccc1N=CN(C)C
Assayed system: Retinoic acid receptor RXR-alpha (Homo sapiens) (UniProt P19793)
max response (%): -16.2
//
Compound: CCOP(=O)(OCC)Oc1ccc2c(C)c(Cl)c(=O)oc2c1
Assayed system: Retinoic acid receptor RXR-alpha (Homo sapiens) (UniProt P19793)
max response (%): -0.0168
//
Compound: Nc1ccccc1C(=O)OCCc1ccccc1
Assayed system: Retinoic acid receptor RXR-alpha (Homo sapiens) (UniProt P19793)
max response (%): -9.65
//
Compound: CCCCN(CC)c1c([N+](=O)[O-])cc(C(F)(F)F)cc1[N+](=O)[O-]
Assayed system: Retinoic acid receptor RXR-alpha (Homo sapiens) (UniProt P19793)
max response (%): -14
//
Compound: C=CC1(C)OC(=O)N(c2cc(Cl)cc(Cl)c2)C1=O (stereo not drawn)
Assayed system: Retinoic acid receptor RXR-alpha (Homo sapiens) (UniProt P19793)
max response (%): -13.3
//
Compound: CCOc1nc(F)cc2nc(S(=O)(=O)Nc3c(Cl)cccc3Cl)nn12
Assayed system: Retinoic acid receptor RXR-alpha (Homo sapiens) (UniProt P19793)
max response (%): -25.7
//
Compound: CC(C)N(C(=O)SCC(Cl)=C(Cl)Cl)C(C)C
Assayed system: Retinoic acid receptor RXR-alpha (Homo sapiens) (UniProt P19793)
max response (%): 10.8
//
Compound: N#Cc1cc(I)c(O)c(I)c1
Assayed system: Retinoic acid receptor RXR-alpha (Homo sapiens) (UniProt P19793)
max response (%): -13.5
//
Compound: O=[N+]([O-])c1cc(C(F)(F)F)cc([N+](=O)[O-])c1Cl
Assayed system: Retinoic acid receptor RXR-alpha (Homo sapiens) (UniProt P19793)
max response (%): 20
//
Compound: CCC[CH2][Sn]([CH2]CCC)([CH2]CCC)[CH2]CCC
Assayed system: Retinoic acid receptor RXR-alpha (Homo sapiens) (UniProt P19793)
max response (%): 4.03
//
Compound: Cn1c(-c2ccccc2)cc(-c2ccccc2)[n+]1C
Assayed system: Retinoic acid receptor RXR-alpha (Homo sapiens) (UniProt P19793)
max response (%): -10.3
//
Compound: Clc1ccc(-c2cc(Cl)c(Cl)cc2Cl)cc1Cl
Assayed system: Retinoic acid receptor RXR-alpha (Homo sapiens) (UniProt P19793)
max response (%): 4.83
//
Compound: CS/C(C)=N/OC(=O)N(C)SN(C)C(=O)O/N=C(\C)SC
Assayed system: Retinoic acid receptor RXR-alpha (Homo sapiens) (UniProt P19793)
max response (%): 15.5
//
Compound: O=C1NCCN1Cc1ccc(Cl)nc1
Assayed system: Retinoic acid receptor RXR-alpha (Homo sapiens) (UniProt P19793)
max response (%): -5.19
//
Compound: C#CCC1=C(C)[C@H](OC(=O)[C@H]2[C@H](C=C(C)C)C2(C)C)CC1=O
Assayed system: Retinoic acid receptor RXR-alpha (Homo sapiens) (UniProt P19793)
max response (%): -4.47
//
Compound: C[N+]1(C)CCCCC1
Assayed system: Retinoic acid receptor RXR-alpha (Homo sapiens) (UniProt P19793)
max response (%): 0.987
//
Compound: CC(C)(C#N)N=NC(C)(C)C#N
Assayed system: Retinoic acid receptor RXR-alpha (Homo sapiens) (UniProt P19793)
max response (%): -0.927
//
Compound: COP(=S)(OC)Oc1c(Cl)cc(C)cc1Cl
Assayed system: Retinoic acid receptor RXR-alpha (Homo sapiens) (UniProt P19793)
max response (%): -12.7
//
Compound: Brc1c(Br)c(Br)c(Br)c(Br)c1Br
Assayed system: Retinoic acid receptor RXR-alpha (Homo sapiens) (UniProt P19793)
max response (%): 0.275
//
Compound: C/C=C(\C)C(=O)O[C@H]1C[C@@H](OC(C)=O)[C@@]2(C(=O)OC)CO[C@H]3[C@@H](O)[C@@](C)([C@]45O[C@@]4(C)[C@H]4C[C@@H]5O[C@@H]5OC=C[C@@]54O)[C@H]4[C@]1(CO[C@]4(O)C(=O)OC)[C@@H]32
Assayed system: Retinoic acid receptor RXR-alpha (Homo sapiens) (UniProt P19793)
max response (%): 9.93
//
Compound: CCCCC(O)(Cn1cncn1)c1ccc(Cl)cc1Cl (stereo not drawn)
Assayed system: Retinoic acid receptor RXR-alpha (Homo sapiens) (UniProt P19793)
max response (%): -17.2
//
Compound: CC1(C)[C@H](C=C(Cl)Cl)[C@H]1C(=O)O[C@H](C#N)c1ccc(F)c(Oc2ccccc2)c1
Assayed system: Retinoic acid receptor RXR-alpha (Homo sapiens) (UniProt P19793)
max response (%): -6.52
//
Compound: Cc1ccccc1C(=O)Nc1cccc(OC(C)C)c1
Assayed system: Retinoic acid receptor RXR-alpha (Homo sapiens) (UniProt P19793)
max response (%): -11.3
//
Compound: CCOP(=O)(NC(C)C)Oc1ccc(S(C)=O)c(C)c1 (stereo not drawn)
Assayed system: Retinoic acid receptor RXR-alpha (Homo sapiens) (UniProt P19793)
max response (%): 0.125
